Target: Lysosomal acid glucosylceramidase (Homo sapiens)
Assay: Inhibition of human recombinant lysosomal GCase at 1 mM using 4-methylumbelliferyl-beta-D-glucopyranoside as substrate preincubated for 45 mins followed by substrate addition and measured after 30 mins by fluorescence spectrophotometric assay relative to control
Conditions: time 75.0 min
parameter: inhibition

Example entries and their recorded answers appear below.
# smiles_str, result
rows = [
    ("O=C(CCCCC(=O)NC(COCc1cn(C[C@@H]2NC[C@@H](O)[C@H]2O)nn1)(COCc1cn(C[C@@H]2NC[C@@H](O)[C@H]2O)nn1)COCc1cn(C[C@@H]2NC[C@@H](O)[C@H]2O)nn1)NC(COCc1cn(C[C@@H]2NC[C@@H](O)[C@H]2O)nn1)(COCc1cn(C[C@@H]2NC[C@@H](O)[C@H]2O)nn1)COCc1cn(C[C@@H]2NC[C@@H](O)[C@H]2O)nn1", "< 50%"),
    ("O[C@@H]1[C@H](O)CN[C@@H]1Cn1cc(CCCn2cc(COCC(COCc3cn(CCCc4cn(C[C@H]5NC[C@@H](O)[C@H]5O)nn4)nn3)(COCc3cn(CCCc4cn(C[C@H]5NC[C@@H](O)[C@H]5O)nn4)nn3)COCc3cn(CCCc4cn(C[C@H]5NC[C@@H](O)[C@H]5O)nn4)nn3)nn2)nn1", "< 50%"),
]

Turning now to a further record.
Data request, read-out inhibition, for O=C(CCCCC(=O)NC(COCc1cn(C[C@H]2NC[C@@H](O)[C@H]2O)nn1)(COCc1cn(C[C@H]2NC[C@@H](O)[C@H]2O)nn1)COCc1cn(C[C@H]2NC[C@@H](O)[C@H]2O)nn1)NC(COCc1cn(C[C@H]2NC[C@@H](O)[C@H]2O)nn1)(COCc1cn(C[C@H]2NC[C@@H](O)[C@H]2O)nn1)COCc1cn(C[C@H]2NC[C@@H](O)[C@H]2O)nn1
< 50%
